B1: Hairpin Ribozyme (parent)
chain: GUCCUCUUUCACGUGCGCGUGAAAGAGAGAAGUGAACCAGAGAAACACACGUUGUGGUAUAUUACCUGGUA

Variants of: B1
EXPERIMENT_DESCRIPTION: self-cleavage, relative activity (ratio to wild type); higher = more cleavage; co-transcriptional
QUANTITY_KIND: self-cleavage
Respond using a number only.

U53A U55C: 0.256

Task: Fill blank: measured self-cleavage of the variant G42A A49G is ____.
Result: 0.118

Task: Could you do the same for G29U U62A , please?
Result: 0.103

Task: Follow-up entry: U14G U33C
Result: 0.0267

Task: Another variant to check: U20C A28G
Result: 1.17

Task: Cool, now U14A A30U
Result: 0.156

Task: Same thing, different variant: G17C C66A
Result: 0.154

Task: // next record G15C U58G
Result: 0.493

Task: // same read-out, input: C10A U14G
Result: 0.632

Task: Continue with C3U A43C
Result: 0.161

Task: // same read-out, input: G13C A24U
Result: 0.735

Task: And the next one, G15C C18U ?
Result: 0.922

Value source: the RNAGym collection of RNA variant scans (doi:10.7554/elife.80360)
